# subjectOfTest: KRAS G12D (Homo sapiens (Human), UniProt P01116+P62937, G12D)
# Sequence (P01116-2 other isoform, or with tags, fused parts or gaps G12D, one chain of several): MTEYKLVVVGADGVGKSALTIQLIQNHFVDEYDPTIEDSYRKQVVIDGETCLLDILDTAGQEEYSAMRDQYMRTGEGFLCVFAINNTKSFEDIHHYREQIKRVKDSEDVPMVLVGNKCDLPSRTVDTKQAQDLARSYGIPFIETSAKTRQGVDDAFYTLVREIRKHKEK
# test: Ras-Raf (BRAF RBD) disruption / FRET / MOA assay, KRAS G12D
# Assay type: biochemical
# details: Ras-Raf disruption/FRET/MOA assay; class symbols; read-out: KRAS G12D FRET data IC50
pIC50: −log10 of the molar value.
// reported pIC50 per item
experimentalReadout: pIC50

>>> measured("C=CC(=O)N1CC[C@H](C(=O)N(C)[C@H](C(=O)N[C@H]2Cc3cc(O)cc(c3)-c3ccc4c(c3)c(c(-c3cnn(C)c3)n4CC)CC(C)(C)COC(=O)[C@@H]3CCCN(N3)C2=O)C(C)C)C1")
"< 5.00"
>>> measured("C=CC(=O)N1CCOC2(CCN(C(=O)N(C)[C@H](C(=O)N[C@H]3CN4CCC=C(C4)c4ccc5c(c4)c(c(-c4cccnc4[C@H](C)OC)n5CC)CC(C)(C)COC(=O)[C@@H]4CCCN(N4)C3=O)C(C)C)CC2)C1")
"< 5.00"
>>> measured("C=CC(=O)N1CC[C@H](C(=O)N2CC[C@H](C)[C@H]2C(=O)N[C@H]2Cc3cccc(c3)-c3ccc4c(c3)c(c(-c3cccnc3[C@H](C)OC)n4CC)CC(C)(C)COC(=O)[C@@H]3CCCN(N3)C2=O)C1 (atropisomer, axis not shown)")
"< 5.00"
>>> measured("C=CC(=O)N(C)[C@@H]1C[C@H](C)N(C(=O)N(C)[C@H](C(=O)N[C@H]2Cc3nc(cs3)-c3ccc4c(c3)c(c(-c3cccnc3[C@H](C)OC)n4CC)CC(C)(C)COC(=O)[C@@H]3CCCN(N3)C2=O)C(C)C)C1 (atropisomer, axis not shown)")
"6.00 to 7.00"
>>> measured("C=CC(=O)N1CC[C@H](C(=O)N(C)[C@H](C(=O)N[C@H]2Cc3cccc(c3)-c3ccc4c(c3)c(c(-c3cc5c(nc3[C@H](C)OC)CN(C)CC5)n4CC)CC(C)(C)COC(=O)[C@@H]3CCCN(N3)C2=O)C(C)C)C1 (atropisomer, axis not shown)")
"< 5.00"
>>> measured("C=CC(=O)N1CCCN(C(=O)N(C)[C@H](C(=O)N[C@H]2Cc3cc(O)cc(c3)-c3ccc4c(c3)c(c(-c3ccccc3CCOC)n4CC)CC(C)(C)COC(=O)[C@@H]3CCCN(N3)C2=O)C(C)C)CC1")
"< 5.00"
>>> measured("C=CC(=O)N1C[C@@H]2CN(C(=O)N(C)[C@H](C(=O)N[C@H]3Cc4nc(cs4)-c4ccc5c(c4)c(c(-c4cccnc4[C@H](C)OC)n5CC)CC(C)(C)COC(=O)[C@@H]4CCCN(N4)C3=O)C(C)C)[C@@H]2C1 (atropisomer, axis not shown)")
"5.00 to 6.00"
>>> measured("C=CC(=O)N1CC[C@H](C(=O)N(C)[C@H](C(=O)N[C@H]2Cc3cccc(c3)-c3ccc4c(c3)c(c(-c3cccnc3[C@H](C)OC)n4CC3COC3)CC(C)(C)COC(=O)[C@@H]3CCCN(N3)C2=O)C(C)C)C1 (atropisomer, axis not shown)")
"< 5.00"
>>> measured("C=CC(=O)N1CC[C@H](C(=O)N(C)[C@H](C(=O)N[C@H]2Cc3cc(O)cc(c3)-c3ccc4c(c3)c(c(-c3cncnc3)n4CC)CC(C)(C)COC(=O)[C@@H]3CCCN(N3)C2=O)C(C)C)O1")
"5.00 to 6.00"
>>> measured("C=CC(=O)N1CCC2(CC1)OCN([C@H](C(=O)N[C@H]1Cc3cccc(c3)-c3ccc4c(c3)c(c(-c3cccnc3[C@H](C)OC)n4CC)CC(C)(C)COC(=O)[C@@H]3CCCN(N3)C1=O)C(C)C)C2=O (atropisomer, axis not shown)")
"< 5.00"
>>> measured("C=CC(=O)N1CC[C@H](C(=O)N(C)[C@H](C(=O)N[C@H]2Cc3cc(O)cc(c3)-c3ccc4c(c3)c(c(-c3cnccc3COC)n4CC)CC(C)(C)COC(=O)[C@@H]3CCCN(N3)C2=O)C(C)C)C1")
"5.00 to 6.00"
>>> measured("C=CC(=O)N1CC[C@H](C(=O)N(C)[C@H](C(=O)N[C@H]2CN(C)C(=O)Cc3ccc4c(c3)c(c(-c3cccnc3COC)n4CC)CC(C)(C)COC(=O)[C@@H]3CCCN(N3)C2=O)C(C)C)C1")
"< 5.00"
>>> measured("C=CC(=O)N1CC[C@H](C(=O)N(C)[C@H](C(=O)N[C@H]2Cc3cc(sn3)-c3ccc4c(c3)c(c(-c3cccnc3[C@H](C)OC)n4CC)CC(C)(C)COC(=O)[C@@H]3CCCN(N3)C2=O)C(C)C)C1 (atropisomer, axis not shown)")
"< 5.00"
>>> measured("C=CC(=O)N1CC(O[C@H](C(=O)N[C@H]2Cc3cc(O)cc(c3)-c3ccc4c(c3)c(c(-c3cccnc3COC)n4CC)CC(C)(C)COC(=O)[C@@H]3CCCN(N3)C2=O)C(C)C)C1")
"< 5.00"
>>> measured("CCn1c(-c2cccnc2[C@H](C)OC)c2c3cc(ccc31)-c1cccc(c1)C[C@H](NC(=O)[C@H](C(C)C)N(C)C(=O)[C@H]1CCN(C(=O)C#CC3(N(C)C)CCOC3)C1)C(=O)N1CCC[C@H](N1)C(=O)OCC(C)(C)C2 (stereo partly shown)")
"< 5.00"
>>> measured("C=CC(=O)N1CC[C@H](N(C)C(=O)N(C)[C@H](C(=O)N[C@H]2Cc3nc(cs3)-c3ccc4c(c3)c(c(-c3cccnc3[C@H](C)OC)n4CC)CC(C)(C)COC(=O)[C@@H]3CCCN(N3)C2=O)C(C)C)C1 (atropisomer, axis not shown)")
"5.00 to 6.00"

---

# subjectOfTest: KRAS G13D (Homo sapiens (Human), UniProt P01116+P62937, G13D)
# Sequence (P01116-2 other isoform, or with tags, fused parts or gaps G13D): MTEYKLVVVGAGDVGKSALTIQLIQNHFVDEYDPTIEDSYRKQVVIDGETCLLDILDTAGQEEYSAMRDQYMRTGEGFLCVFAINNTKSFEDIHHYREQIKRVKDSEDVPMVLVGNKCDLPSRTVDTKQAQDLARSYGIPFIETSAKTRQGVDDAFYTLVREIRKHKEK
# Sequence (P62937 whole entry): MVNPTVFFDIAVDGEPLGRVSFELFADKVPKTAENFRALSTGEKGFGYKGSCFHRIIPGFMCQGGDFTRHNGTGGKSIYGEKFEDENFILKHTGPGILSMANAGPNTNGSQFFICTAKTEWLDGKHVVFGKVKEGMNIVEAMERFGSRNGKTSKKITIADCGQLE
# test: Ras-Raf (BRAF RBD) disruption / FRET / MOA assay, KRAS G13D
# Format: biochemical
# details: read-out: IC50* KRAS G13D FRET data
pIC50: −log10 of the molar value.
// reported pIC50 per item
experimentalReadout: pIC50

>>> measured("C=CC(=O)N1C[C@H]2CN(C(=O)N(C)[C@H](C(=O)N[C@H]3Cc4nc(cs4)-c4ccc5c(c4)c(c(-c4cccnc4[C@H](C)OC)n5CC)CC(C)(C)COC(=O)[C@@H]4CCCN(N4)C3=O)C(C)C)[C@H]2C1 (atropisomer, axis not shown)")
"6.00 to 7.00"
>>> measured("CCn1c(-c2cccnc2[C@H](C)OC)c2c3cc(ccc31)-c1csc(n1)C[C@H](NC(=O)CN1CC[C@@]3(CCN(C(=O)C#CC(C)(C)N4CCC4)C3)C1)C(=O)N1CCC[C@H](N1)C(=O)OCC(C)(C)C2 (atropisomer, axis not shown)")
"5.00 to 6.00"
>>> measured("CCn1c(-c2cnccc2C(C)C)c2c3cc(ccc31)-c1cc(O)cc(c1)C[C@H](NC(=O)[C@H](C(C)C)N(C)C(=O)[C@H]1CCN(C(=O)C#CCN(C)C)C1)C(=O)N1CCC[C@H](N1)C(=O)OCC(C)(C)C2")
"6.00 to 7.00"
>>> measured("C=CC(=O)N(C)CCN1CCN(C(=O)N(C)[C@H](C(=O)N[C@H]2Cc3cccc(c3)-c3ccc4c(c3)c(c(-c3cccnc3[C@H](C)OC)n4CC)CC(C)(C)COC(=O)[C@@H]3CCCN(N3)C2=O)C(C)C)C[C@H]1C (atropisomer, axis not shown)")
"5.00 to 6.00"
>>> measured("C=CC(=O)N1CC[C@H](C(=O)N(C)[C@H](C(=O)N[C@H]2Cc3cccc(c3)-c3ccc4c(c3)c(c(-c3cccnc3[C@H](C)OC)n4CC(F)(F)F)CC(C)(C)COC(=O)[C@@H]3CCCN(N3)C2=O)C(C)C)C1 (atropisomer, axis not shown)")
"5.00 to 6.00"
>>> measured("C=CC(=O)N1CC[C@H](C(=O)N(C)[C@H](C(=O)N[C@H]2Cc3cccc(c3)-c3ccc4c(c3)c(c(-c3cnccc3COC)n4CC)CC(C)(C)COC(=O)[C@@H]3CCCN(N3)C2=O)C(C)C)C1 (atropisomer, axis not shown)")
"< 5.00"
>>> measured("CCn1c(-c2cccnc2[C@H](C)OC)c2c3cc(ccc31)-c1cccc(c1)CC(NC(=O)[C@H](C(C)C)N1CC[C@]3(CCN(C(=O)C#C[C@@H]4COCCN4C4COC4)C3)C1=O)C(=O)N1CCC[C@H](N1)C(=O)OCC(C)(C)C2 (some centres unmarked)")
"< 5.00"
>>> measured("C=CC(=O)N1C[C@@H](C)N(C(=O)N(C)[C@H](C(=O)N[C@H]2Cc3nc(cs3)-c3ccc4c(c3)c(c(-c3cccnc3[C@H](C)OC)n4CC)CC(C)(C)COC(=O)[C@@H]3CCCN(N3)C2=O)C(C)C)C[C@H]1C (atropisomer, axis not shown)")
"6.00 to 7.00"
